assay: reduction of polyQ htt aggregates in cells – imaging, exon1htt(103Q)mCFP cells, high-content imaging, primary screen (AID 483); details: exon1htt(103Q)mCFP cell line, aggregate imaging, at 2 µM; stronger effect = higher value;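 note: compound exposure lasted 3 days before fixation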
Attribute Measured: inhibition of aggregation (%)
Answers are plain numbers, in %.

Some molecules with known inhibition of aggregation results, for comparison:
* COc1cc2c(cc1OC)C(C)N(C(=O)c1cc3n(n1)C(C(F)(F)F)CC(c1ccco1)N3)CC2 (configuration not stated) | -0.8
* CCC(=O)Nc1ccc(Cl)c(NC(=O)C(C)C)c1 | -10.3
* Cc1ccc2c(c1)N(CC(=O)Nc1ccc3c(c1)OCCO3)C(=O)CO2 | -2.2
* O=c1c2cc(N3CCOCC3)ccc2[nH]c(=S)n1CCCN1CCCCC1 | -8.5

For each of the molecules below, note its inhibition of aggregation.
1. Cc1cccc(-n2ncc3c(N(CCO)CCO)ncnc32)c1
2. O=C(COC(=O)CCC(=O)c1cccs1)NCc1ccco1
3. Cc1csc(NC(=O)c2ccco2)n1
4. CCOC(=O)c1ccccc1NC(=O)c1cccnc1
5. Cc1cc(C)n(CCc2nc(-c3cccs3)cs2)n1
6. COC1CCCCC1Nc1cccc(SC)c1 (configuration not stated)
7. O=C(NCCO)c1cc2ccccc2cc1O
8. COCCn1c(CN2CCN(c3cccc(Cl)c3)CC2)nc2c1c(=O)n(C)c(=O)n2C

1. -5
2. 1.1
3. -1.8
4. -28.4
5. -5.8
6. -6.7
7. 23.4
8. 5.4

====

For each record, write down the corresponding nuclei count.
assay: reduction of polyQ htt aggregates in cells – imaging, exon1htt(103Q)mCFP cells, high-content imaging, primary screen (AID 483); settings: exon1htt(103Q)mCFP cell line, aggregate imaging, at 2 µM; measured here: cell count, toxicity;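 note: compound exposure lasted 3 days before fixation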;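 for nuclei count: percent of the per-plate median nuclei count of sample wells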
Answers are plain numbers, in %.

Some compounds with known nuclei count results, for comparison:
- CCN1CCCC1CNC(=O)CS(=O)(=O)Cc1nc(-c2ccccc2C)oc1C (stereo unspecified): 104
- Cc1ccc(-c2cc(C(=O)Nc3cc(C)on3)c3ccccc3n2)c(C)c1: 111

For each of the compounds below, note its nuclei count.
1. CCOc1ccc(-c2nc(C#N)c(N3CCN(C)CC3)o2)cc1
2. CCN(Cc1ccccc1)C(c1ccncc1)c1nnnn1C(C)(C)C (stereo unspecified)
3. CCOC(=O)C1CCCN(C(=O)c2cn(C)c(=O)c3cc(OC)c(OC)cc23)C1 (stereo unspecified)
4. CC(C)CC(c1nnnn1CC1CCCO1)N1CCN(Cc2ccc3c(c2)OCO3)CC1 (stereo unspecified)
5. COC(=O)c1[nH]c2ccc(F)cc2c1NS(=O)(=O)c1ccc(OC)cc1OC
6. Cc1ccc(NC(=O)c2ccco2)c(NC(=O)c2cccs2)c1
7. Cc1cc(C)nc(N2CCC(C(=O)NC3CCCCCC3)CC2)n1

1. 102
2. 122
3. 110
4. 129
5. 106
6. 103
7. 93.6

====

assay: reduction of polyQ htt aggregates in cells – imaging, exon1htt(103Q)mCFP cells, high-content imaging, primary screen (AID 483); details: exon1htt(103Q)mCFP cell line, aggregate imaging, at 2 µM; stronger effect = higher value;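 note: compound exposure lasted 3 days before fixation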
For each record, write down the corresponding inhibition of aggregation.
Give bare numbers, in %.

- CC(C)Cn1c(N)c(C(=O)NCc2cccs2)c2nc3ccccc3nc21: -3.1
- CC(=O)c1ccccc1OCCn1nnc(-c2ccc(C)cc2)n1: -20.1
- O=C(Cn1nnc(-c2ccc(CN3CCOCC3)cc2)n1)NC1CCCCC1: 7.3
- COc1ccccc1C(=O)NCCNC(=O)c1ccco1: 5.6
- COc1cc(C(=O)OC(C)CN2CCCC2)cc(OC)c1OC (stereo unspecified): -4.1

Next item in the queue.
Data request, read-out inhibition of aggregation, for COC(=O)c1ccc(C2CC(=O)Nc3cc(OC)c(OC)c(OC)c32)cc1 (stereo unspecified)
11.2

====

test: endothelial E-selectin expression blockers – imaging, HUVEC, immunofluorescence, MLSMR starter and 10KST1 sets, primary screen (AID 487); details: HUVEC TNFalpha-induced E-selectin immunofluorescence imaging, at 2 µM; stronger effect = higher value;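 note: signal is fraction of cell area covered by stained E-selectin grains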
Attribute Measured: inhibition (%)
Give bare numbers, in %.

Some compounds with known inhibition results, for comparison:
- Cc1cnc(C(=O)OCC(=O)Nc2ccc(Cl)cc2Cl)cn1: -37
- Cc1c(NC(=O)c2ccc(Br)o2)c(=O)n(-c2ccccc2)n1C: -74
- COc1cc(C)c(-c2cc(C(=O)O)c(C)o2)cc1C(C)C: -99
- Cc1noc(C)c1CSc1nnc2n(-c3ccccc3)c(=O)c3ccccc3n12: -27.6
- Cn1c(SCC(=O)Nc2cccc3ccccc23)nc(O)cc1=O: 17.2

For each of the compounds below, note its inhibition.
1. CCOC(=O)c1[nH]c(CSc2nnc(-c3ccncc3)n2CCOC)c(C(=O)OCC)c1C
2. COc1ccccc1Nc1nc2ccccc2[nH]1
3. COc1cc(C(c2sc3nc(C)nn3c2O)N2CC(C)CC(C)C2)cc(OC)c1OC (stereo unspecified)
4. CCc1nnc(NC(=O)CN2CCN(c3ccccc3OC)CC2)s1
5. COc1ccccc1NC(=O)CSc1nnc(CC(=O)Nc2ccccc2)n1C

[-89.1, -12.4, -18.2, 3.6, -44]

For each of the compounds below, note its inhibition.
1. Cc1nc(NCc2ccc3c(c2)OCO3)c2oc3ccccc3c2n1
2. CCc1nn2c(=O)cc(CSc3nc4sc5c(c4c(=O)n3C)CCCC5)nc2s1
3. CC(C)CCNC(=O)NC(=O)COc1ccccc1C#N
4. CN(Cc1ccccc1)C(=O)c1ccccc1NC(=O)c1ccco1

44.7
38
-71.3
-102

For each of the compounds below, note its inhibition.
1. c1ccc(Cc2nn3c(Cn4cnc5ccccc54)nnc3s2)cc1
2. Cc1cc(C)n(-c2cc(N3CCOCC3)nc(-c3ccccc3)n2)n1
3. CCOc1ccccc1C(=O)NCc1ccc2c(c1)OCO2
4. CSc1nc(=NC(C)=O)ss1
5. COc1ccc(-n2ncc3c(N4CCC(C)CC4)ncnc32)cc1
6. CC1CCCCC1NC(=O)CCCc1nc2ccccc2c(=O)[nH]1 (stereo unspecified)
7. Nc1nc2n(n1)C(c1cccc(Br)c1)CC(c1ccccc1)N2 (stereo unspecified)
8. Cc1ccc(NC(=O)C2CCCN2S(=O)(=O)c2cccc3cccnc23)cc1F (stereo unspecified)

-19.6
-59.2
-18.7
22.2
-10.8
-11.1
-39.6
-56.2

For each of the compounds below, note its inhibition.
1. COc1cccc(C(=O)CN2CCC(NC(=O)NC3CCCCC3)CC2)c1
2. Cc1ccc(S(=O)(=O)Cn2nnnc2C(C(C)C)N2CCN(C(=O)c3ccco3)CC2)cc1 (stereo unspecified)
3. Cc1nc2c(-c3ccccc3)c(C)nn2c(C)c1CCC(=O)O
4. O=C(CN1CCCN(S(=O)(=O)c2ccc(F)cc2)CC1)Nc1ccccc1Br

1. -26.9
2. 6.9
3. -61.1
4. -17.3

For each of the compounds below, note its inhibition.
1. CN1CCN(C2=C(Cl)C(=O)N(c3cccc(Cl)c3)C2=O)CC1
2. O=C(CCNC(=O)c1ccc(Br)o1)NC1CCCC1
3. Cc1cc(NC(=O)COc2cccc(Oc3ccccc3)c2)no1
4. O=S(=O)(c1cc(Cl)ccc1Br)N1CCOCC1
5. Cc1cccc(-c2cc3nc(C)cc(NCCCN(C)C)n3n2)c1
6. COC(=O)c1sc(N2C(=O)C(O)=C(C(=O)c3ccc(C)o3)C2c2ccc(F)cc2)nc1C (stereo unspecified)
7. CCN(CCO)C(=O)CC(c1ccccc1)c1cc(Br)ccc1O (stereo unspecified)
8. COc1ccc(CCNC(=O)C2=COCCO2)cc1

[-1.1, -29.9, -61, -192, -44.2, 35.1, -31.9, 53.6]

For each of the compounds below, note its inhibition.
1. O=C(c1ccc(-c2ccccc2)cc1)N1CCN(c2ncccn2)CC1
2. Cc1cc(C(=O)Nc2ccccc2C#N)n(-c2ccccc2)n1
3. COC(C)(C)c1cc(C(C)(C)C)nc(N)n1
4. CCOC(=O)c1c(C)[nH]c(C(=O)COC(=O)C2CC2C)c1C (stereo unspecified)
5. Cc1sc(NC(=O)CSc2nc(N)n(CC(=O)c3ccccc3)n2)c(C#N)c1C
6. CCn1cc(SCC(=O)Nc2cc(C)on2)c2ccccc21
7. CCOC(=O)Cc1csc(NC(=O)CN(C)S(=O)(=O)c2ccc3c(c2)CCC(=O)N3)n1

-38.6
27.3
-28.8
-20.9
-61.6
29.9
40.4

For each of the compounds below, note its inhibition.
1. CCN(CC)S(=O)(=O)c1cccc(-c2nnc(SCC(N)=O)n2CCc2ccccc2)c1
2. O=C1N(CCCCN2C(=O)C3(OCCO3)c3ccccc32)c2ccccc2C12OCCO2

1. -32.3
2. -60.9

For each of the compounds below, note its inhibition.
1. CCOC(=O)c1c(N)sn(-c2ccccc2)c1=S
2. COc1ccccc1NC(=O)CSc1nnnn1-c1ccc2c(c1)OCO2
3. COCCn1c(SCC(=O)N(C(C)C)C(C)C)nnc1-c1cc2ccccc2cc1O

[-55.1, -122, -1]
